Data origin: patent US12134608B2

biological target: human H1 receptor (Homo sapiens, UniProt P35367); assay: hH1 GTPgS: inhibition of agonist-induced stimulation of radioactive GTP-gamma-S binding at recombinant receptors; type: biochemical
Sequence (P35367 whole entry): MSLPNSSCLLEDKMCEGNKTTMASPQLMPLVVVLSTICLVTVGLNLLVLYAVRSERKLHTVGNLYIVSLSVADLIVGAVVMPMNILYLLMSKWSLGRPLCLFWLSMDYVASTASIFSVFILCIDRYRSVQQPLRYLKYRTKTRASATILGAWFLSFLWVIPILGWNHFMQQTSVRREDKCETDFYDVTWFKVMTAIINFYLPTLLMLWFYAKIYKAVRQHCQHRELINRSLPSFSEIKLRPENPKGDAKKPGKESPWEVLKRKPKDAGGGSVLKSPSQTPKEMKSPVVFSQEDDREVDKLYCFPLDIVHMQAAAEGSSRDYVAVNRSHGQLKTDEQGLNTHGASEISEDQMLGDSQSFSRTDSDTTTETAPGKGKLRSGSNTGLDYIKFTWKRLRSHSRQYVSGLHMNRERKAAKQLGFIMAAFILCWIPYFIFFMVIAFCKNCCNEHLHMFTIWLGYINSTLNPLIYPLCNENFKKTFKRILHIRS
metric_name: Kb (µM)

molecule	Kb (µM)
CN1CCC(OC(c2nc3cc(F)ccc3[nH]2)c2ccccc2O)CC1 (single isomer, unassigned) [Example 5 Distomer A]	0.0975
CN1CCC(OC(c2nc3cc(F)ccc3[nH]2)c2ccccc2O)CC1 (single isomer, unassigned) [Example 5]	0.00165
CN1CCC(OC(c2nc3cccc(Cl)c3[nH]2)c2ccccc2O)CC1 (single isomer, unassigned) [Example 6]	0.00125
Cc1c(Cl)ccc2nc(C(OC3CCN(C)CC3)c3ccccc3O)[nH]c12 (single isomer, unassigned) [Example 7 Distomer A]	0.132
CN1CCC(OC(c2nc3cccc(Cl)c3[nH]2)c2ccccc2O)CC1 (single isomer, unassigned) [Example 6 Distomer A]	0.598

I: CN1CCC(OC(c2nc3ccc(Cl)c(F)c3[nH]2)c2ccccc2O)CC1 (single isomer, unassigned) [Example 3 Distomer A]
II: CN1CCC(OC(c2nc3ccc(Cl)c(F)c3[nH]2)c2ccccc2O)CC1 (single isomer, unassigned) [Example 3]
Incoming: Of I and II , whose reported Kb is the larger number? I would appreciate it if you answered with the label of your choice.
Outgoing: I

a: CN1CCC(O[C@H](c2nc3ccccc3[nH]2)c2cccc(F)c2O)CC1
b: CN1CCC(OC(c2nc3ccccc3[nH]2)c2cccc(F)c2O)CC1 (single isomer, unassigned)
Incoming: Pick one: a or b . Which one has the lower reported Kb? I would appreciate it if you answered with the label of your choice.
Outgoing: a
(a: 0.00218 µM, b: 0.225 µM)

A: Cc1cccc2nc(C(OC3CCN(C)CC3)c3ccccc3O)[nH]c12 (single isomer, unassigned) [Example 4]
B: Cc1cccc2nc(C(OC3CCN(C)CC3)c3ccccc3O)[nH]c12 (single isomer, unassigned) [Example 4 Distomer A]
C: Cc1c(Cl)ccc2nc(C(OC3CCN(C)CC3)c3ccccc3O)[nH]c12 (single isomer, unassigned) [Example 7]
Incoming: List by increasing Kb. Put the labels in the requested order and write them down.
Outgoing: A, C, B
(A: 0.000165 µM, C: 0.00187 µM, B: 0.133 µM)

* * *

Reported pKi values are given for each entry in this list.
molecular target: hERG channel (Homo sapiens, UniProt Q12809); experiment: hERG competition binding; details: comparative compounds of WO 2012/041860, eutomer and distomer
Sequence (Q12809 whole entry): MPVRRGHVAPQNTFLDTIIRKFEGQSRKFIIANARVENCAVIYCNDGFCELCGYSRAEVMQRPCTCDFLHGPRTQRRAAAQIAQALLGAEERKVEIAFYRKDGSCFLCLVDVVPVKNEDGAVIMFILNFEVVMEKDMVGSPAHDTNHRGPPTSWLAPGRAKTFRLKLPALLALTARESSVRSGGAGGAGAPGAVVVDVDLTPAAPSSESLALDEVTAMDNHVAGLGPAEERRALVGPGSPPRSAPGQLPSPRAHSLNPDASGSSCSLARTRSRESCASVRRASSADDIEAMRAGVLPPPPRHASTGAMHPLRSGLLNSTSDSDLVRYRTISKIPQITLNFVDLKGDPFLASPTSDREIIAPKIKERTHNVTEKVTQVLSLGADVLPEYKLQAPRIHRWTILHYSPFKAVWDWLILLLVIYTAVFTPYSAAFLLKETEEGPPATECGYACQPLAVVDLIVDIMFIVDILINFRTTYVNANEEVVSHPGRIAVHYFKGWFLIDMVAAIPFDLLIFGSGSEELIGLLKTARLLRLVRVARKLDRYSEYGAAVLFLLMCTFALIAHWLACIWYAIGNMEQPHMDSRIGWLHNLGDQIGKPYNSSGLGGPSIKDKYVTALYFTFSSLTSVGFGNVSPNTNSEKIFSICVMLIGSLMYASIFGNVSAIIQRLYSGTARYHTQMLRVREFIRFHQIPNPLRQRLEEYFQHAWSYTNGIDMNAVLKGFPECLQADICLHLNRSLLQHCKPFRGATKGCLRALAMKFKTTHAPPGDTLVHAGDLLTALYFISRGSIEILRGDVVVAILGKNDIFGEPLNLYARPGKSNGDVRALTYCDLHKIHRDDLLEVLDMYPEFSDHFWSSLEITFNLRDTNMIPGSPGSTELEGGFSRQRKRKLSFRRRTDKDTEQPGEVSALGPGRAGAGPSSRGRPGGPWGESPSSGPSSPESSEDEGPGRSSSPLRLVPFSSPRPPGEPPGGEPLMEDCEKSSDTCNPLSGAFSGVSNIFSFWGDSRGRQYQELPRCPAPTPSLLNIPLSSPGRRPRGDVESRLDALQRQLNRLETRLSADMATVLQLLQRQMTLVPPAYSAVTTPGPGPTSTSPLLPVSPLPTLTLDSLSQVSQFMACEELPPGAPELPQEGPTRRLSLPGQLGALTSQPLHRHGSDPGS
# pKi = -log10(concentration in molar units)

Known pKi results, listed for orientation:
compound	pKi
CN1CCC(OC(c2nc3ccccc3[nH]2)c2ccc(F)c(F)c2O)CC1 (stereo not drawn) [drawing 26 Eutomer, reference compound]	4.74
CN1CCC(OC(c2nc3ccccc3[nH]2)c2ccc(Cl)c(F)c2O)CC1 (stereo not drawn) [drawing 28 Distomer, reference compound]	5.07

Attention now shifts to the item below.
Incoming: Query (compound): Cc1ccc(C(OC2CCN(C)CC2)c2nc3ccc(F)cc3[nH]2)c(O)c1F (single isomer, unassigned) [drawing 27 Eutomer, reference compound] ; field requested: pKi
Outgoing: 6.66

* * *

experiment: Brain exposure: exposure over 8 hours in brain and plasma after per os administration to mice; assay type: in vivo; details: mouse, brain/plasma, oral, 1 mg/kg, examples of the present invention, read-out: ratio of the exposure in brain over the one in plasma
metric_name: Kp

compound	Kp
CN1CCC(OC(c2nc3ccc(Cl)c(F)c3[nH]2)c2ccccc2O)CC1 (single isomer, unassigned) [Example 3]	0

P: CN1CCC(OC(c2nc3cccc(Cl)c3[nH]2)c2ccccc2O)CC1 (single isomer, unassigned) [Example 6]
Q: Cc1cccc2nc(C(OC3CCN(C)CC3)c3ccccc3O)[nH]c12 (single isomer, unassigned) [Example 4]
Incoming: Pick one: P or Q . Which one has the lower reported Kp? I would appreciate it if you answered with the label of your choice.
Outgoing: P
(P: 0, Q: 0.3)
